# Test system: Pseudomonas aeruginosa UI-18: Wild-type (PA-7)
# assay-summary: MIC determination (CLSI), PA-7
# Type: cell-based
# measurement-setup: Pseudomonas aeruginosa; Table 3; read-out: PA-7 MIC
Listed here are compounds together with their documented MIC.
property: MIC

compound="CC(CCc1ccc(OCc2ccc3ccccc3n2)cc1)(C(=O)NO)S(C)(=O)=O (stereo not drawn)" property=MIC observed="≥ 64 µg/mL"
compound="Cc1ccc(Cc2noc(COc3ccc(CCC(C)(C(=O)NO)S(C)(=O)=O)cc3)n2)cc1 (stereo not drawn)" property=MIC observed="≥ 64 µg/mL"
compound="CC(CCc1ccc(OCc2nc(-c3cc(F)cc(F)c3)no2)cc1)(C(=O)NO)S(C)(=O)=O (stereo not drawn)" property=MIC observed="≥ 64 µg/mL"

* * *

# Test system: Pseudomonas aeruginosa UI-18: Wild-type (PA-7)
# assay-summary: MIC determination (CLSI), PA-7
# Format: cell-based
# measurement-setup: Pseudomonas aeruginosa; Table 3; read-out: PA-7 MIC
property: MIC (µg/mL)

compound="CC(C)c1ccc(-c2noc(COc3ccc(CCC(C)(C(=O)NO)S(C)(=O)=O)cc3)n2)cc1 (stereo not drawn)" measurement_qualifier=≥ observed=64
compound="Cc1oc(-c2ccccc2F)nc1COc1ccc(CCC(C)(C(=O)NO)S(C)(=O)=O)cc1 (stereo not drawn)" measurement_qualifier=≥ observed=64
compound="Cc1ccc(COc2ccc(CCC(C)(C(=O)NO)S(C)(=O)=O)cc2)cc1 (stereo not drawn)" measurement_qualifier== observed=4
compound="CC(C)CCOc1ccc(CCC(C)(C(=O)NO)S(C)(=O)=O)cc1 (stereo not drawn)" measurement_qualifier== observed=8
compound="CC(CCc1ccc(OCc2c(F)cccc2Cl)cc1)(C(=O)NO)S(C)(=O)=O (stereo not drawn)" measurement_qualifier== observed=4
compound="CC(CCc1ccc(OCc2nc(-c3ccccc3)no2)cc1)(C(=O)NO)S(C)(=O)=O (stereo not drawn)" measurement_qualifier== observed=32

* * *

# Test system: Acinetobacter baumanii/haemolyticus: Multidrug-resistant clinical isolate (AB-3167)
# assay-summary: MIC determination (CLSI), AB-3167
# Assay type: cell-based
# measurement-setup: Acinetobacter baumanii/haemolyticus multidrug-resistant clinical isolate AB-3167
# Procedure: The in vitro antibacterial activity of compounds described in the Examples was evaluated by minimum inhibitory concentration (MIC) testing according to Clinical and Laboratory Standards Institute (CLSI, formerly NCCLS) guidelines. See: Clinical and Laboratory Standards Institute. Methods for Dilution Antimicrobial Susceptibility Tests for Bacteria that Grow Aerobically; Approved Standard-Seventh Edition. CLSI document M7-A7 [ISBN 1-56238-587-9]. […]
property: AB-3167 MIC

compound="CC(CCc1ccc(-c2ccc(F)cc2)nc1)(C(=O)NO)S(C)(=O)=O (centres unmarked) [Example 119]" observed="≧64 mg/L"
compound="CC(CCc1ccc(-c2cccnc2)c(F)c1)(C(=O)NO)S(C)(=O)=O (centres unmarked) [Example 197]" observed="≧64 mg/L"
compound="CC(CCc1ccc(-c2ccc(OCCCN)cc2)cc1)(C(=O)NO)S(C)(=O)=O (centres unmarked) [Example 117]" observed="≧64 mg/L"
compound="CC(CCc1ccc(Br)cc1)(C(=O)NO)S(C)(=O)=O (centres unmarked) [Example 32]" observed="≧64 mg/L"
compound="CC(CCc1ccc(-c2ccc(N3CCOCC3)cc2)cc1)(C(=O)NO)S(C)(=O)=O (centres unmarked) [Example 165]" observed="≧64 mg/L"

* * *

# Tested on: Pseudomonas aeruginosa UI-18: Wild-type (PA-7)
# assay-summary: MIC determination (CLSI), PA-7
# Assay type: cell-based
# measurement-setup: Pseudomonas aeruginosa; Table 3; read-out: PA-7 MIC
property: MIC

molecule="CC(CCc1ccc(OCC2CC2)cc1)(C(=O)NO)S(C)(=O)=O (centres unmarked)" observed="≥ 64 µg/mL"
molecule="COc1ccc(F)c(-c2noc(COc3ccc(CCC(C)(C(=O)NO)S(C)(=O)=O)cc3)n2)c1 (centres unmarked)" observed="≥ 64 µg/mL"
molecule="Cc1cccc(-c2nc(COc3ccc(CCC(C)(C(=O)NO)S(C)(=O)=O)cc3)c(C)o2)c1 (centres unmarked)" observed="≥ 64 µg/mL"
molecule="CCCCCc1noc(COc2ccc(CCC(C)(C(=O)NO)S(C)(=O)=O)cc2)n1 (centres unmarked)" observed="≥ 64 µg/mL"
molecule="CC(CCc1ccc(OCCCOCc2ccccc2)cc1)(C(=O)NO)S(C)(=O)=O (centres unmarked)" observed="≥ 64 µg/mL"

* * *

# System: Klebsiella pneumoniae: Ciprofloxacin-resistant isolate, ESBL, clinical isolate (KP-3700)
# assay-summary: MIC determination (CLSI), KP-3700
# Assay type: cell-based
property: KP-3700 MIC

compound="CC(CCc1ccc(-c2cnc(C#N)cn2)cc1)(C(=O)NO)S(C)(=O)=O (stereo not shown) [Example 130]" study_system="Klebsiella pneumoniae: Ciprofloxacin-resistant isolate, ESBL, clinical isolate (KP-3700)" observed="≧64 mg/L"
compound="CC(CCc1ccc(-c2ccc(N3CCN(S(C)(=O)=O)CC3)cc2)cc1)(C(=O)NO)S(C)(=O)=O (stereo not shown) [Example 193]" study_system="Klebsiella pneumoniae: Ciprofloxacin-resistant isolate, ESBL, clinical isolate (KP-3700)" observed="≧64 mg/L"
compound="CC(CCc1ccc(OCc2nc(-c3cccnc3)no2)cc1)(C(=O)NO)S(C)(=O)=O (stereo not shown) [Example 305]" study_system="Klebsiella pneumoniae: Ciprofloxacin-resistant isolate, ESBL, clinical isolate (KP-3700)" observed="≧64 mg/L"
compound="Cc1ccccc1-c1ccc(CCC(C)(C(=O)NO)S(C)(=O)=O)cc1 (racemic) [Example 58]" study_system="Klebsiella pneumoniae: Ciprofloxacin-resistant isolate, ESBL, clinical isolate (KP-3700)" observed="32 µg/mL"

* * *

Listed here are compounds together with their documented KP-3700 MIC.
# Test system: Klebsiella pneumoniae: Ciprofloxacin-resistant isolate, ESBL, clinical isolate (KP-3700)
# assay-summary: MIC determination (CLSI), KP-3700
# Type: cell-based
property: KP-3700 MIC (µg/mL)

compound="CC(CCc1ccc(OCCOc2ccccc2)cc1)(C(=O)NO)S(C)(=O)=O (stereo not shown)" property="KP-3700 MIC" observed=8
compound=C[C@@](CCc1ccc(-c2ccc(OCCCN3CCCCC3)cc2)cc1)(C(=O)NO)S(C)(=O)=O property="KP-3700 MIC" observed=32
compound="CC(CCc1ccc(OCc2ccc(OC(F)(F)F)cc2)cc1)(C(=O)NO)S(C)(=O)=O (stereo not shown)" property="KP-3700 MIC" observed=8
compound=CC(=O)c1ccc(-c2ccc(CC[C@](C)(C(=O)NO)S(C)(=O)=O)cc2)nc1 property="KP-3700 MIC" observed=16
compound="CC(CCc1ccc(-c2ccc(CO)c(F)c2)cc1)(C(=O)NO)S(C)(=O)=O (stereo not shown)" property="KP-3700 MIC" observed=16
compound="CC(CCc1ccc(OCc2ccc(-n3cccn3)cc2)cc1)(C(=O)NO)S(C)(=O)=O (stereo not shown)" property="KP-3700 MIC" observed=16
compound="Cc1cc(-c2ccccc2)ccc1CCC(C)(C(=O)NO)S(C)(=O)=O (stereo not shown)" property="KP-3700 MIC" observed=8
compound=C[C@@](CCc1ccc(-c2ccc(OCC(=O)N3CC(O)C3)cc2)cc1)(C(=O)NO)S(C)(=O)=O property="KP-3700 MIC" observed=32
compound=C[C@@](CCc1ccc(-c2ccc3c(c2)C(=O)NC3)cc1)(C(=O)NO)S(C)(=O)=O property="KP-3700 MIC" observed=16
compound="CC(C)c1ccc(-c2ccc(CCC(C)(C(=O)NO)S(C)(=O)=O)cc2)cc1 (stereo not shown)" property="KP-3700 MIC" observed=8
compound="Cc1cc(C)cc(COc2ccc(CCC(C)(C(=O)NO)S(C)(=O)=O)cc2)c1 (stereo not shown)" property="KP-3700 MIC" observed=32
compound="CC(CCc1ccc(-c2cnc(N3CCOCC3)nc2)cc1)(C(=O)NO)S(C)(=O)=O (stereo not shown)" property="KP-3700 MIC" observed=32
compound="Cc1csc(-c2ccc(CCC(C)(C(=O)NO)S(C)(=O)=O)cc2)c1 (stereo not shown)" property="KP-3700 MIC" observed=4

* * *

# Tested on: Klebsiella pneumoniae: Ciprofloxacin-resistant isolate, ESBL, clinical isolate (KP-3700)
# assay-summary: MIC determination (CLSI), KP-3700
# Format: cell-based
property: KP-3700 MIC

compound="CC(CCc1ccc(OCCC2CCCCC2)cc1)(C(=O)NO)S(C)(=O)=O (stereo not drawn)" property="KP-3700 MIC" observed="≧64 mg/L"
compound="CC(CCc1ccc(OCCCOc2ccccc2)cc1)(C(=O)NO)S(C)(=O)=O (stereo not drawn)" property="KP-3700 MIC" observed="≧64 mg/L"
compound="Cc1ncccc1COc1ccc(CCC(C)(C(=O)NO)S(C)(=O)=O)cc1 (stereo not drawn)" property="KP-3700 MIC" observed="≧64 mg/L"
